- assay.info: soluble on expression in E. coli; label from the status in PepcDB or PDB records
readout.name: soluble on expression in E. coli

[
  {
    "query.sequence": "MVWFFEYYDGCGLAIKVKKKLYEAEGVQKVEIYETESMGKMLVIDGKIQLTELDEPFYHEMLVHVPMLSHENPRKVAVIGGGDGGALREVLKHNVERAVLVDIDRNVIDLSRKFLKIDHGAFEDERVEIAIMDGKEFLRDCEIFDVIIVDSTDPVGVSDTLFDREFFELARQKCDVISLQSQSPLIQKEYFRTLLVNSAPFERRDVYLSCVPTYPLALWSFIIGGEYDFSNLEERFERIKGKTVHYNPDVHRAAFALPEWLKKEVEACILEHHHHHH",
    "readout.name": "soluble on expression in E. coli",
    "result": "soluble"
  },
  {
    "query.sequence": "ISEFDYSARFVLSDGKRKILRYPNPTNSLSSDVYYNGQILGDIWGYKTVGIAQTQEEMNAHLANGGTPNWGTNWGAGDVMYANLDGKEGVNNGSNTLEDHGDLTIIGNNTPRYNFGLTLTGAWKGFDFSVFLQGVMKRDYWLDGPYFWGANGGLWQSTAFKEHMDYWRPEGDPLGANTNAYYPKPYFNTDKNQKVQSGYLQNAAYCRLKNAQIGYTLPKTWTRKAAMESVRVYVSGDNLVTFSGISGVFDPELLGSDWGDGKLYPLQRTISIGLNVNF",
    "readout.name": "soluble on expression in E. coli",
    "result": "not soluble"
  },
  {
    "query.sequence": "AIASTMVYPREERLEKLTQDEIISSTKLVIQGLEALKSEHNSILQSLLETIQCLKKDEEASLVHEKSSLLRKSVEMIELGLGEAQVMMALSNHLNAVESEKQKLRAQVRRLCQENQWLRDELANTQHKVQKSEQSVAQLEEEKKHLEFMNQLKKYDDGATPEVSPHNDMHRDVSLSVRQLKRLRESK",
    "readout.name": "soluble on expression in E. coli",
    "result": "soluble"
  },
  {
    "query.sequence": "MSLGDLEQKIIAMDLWHLALPVVSARDHGIGRVEGSCEIVVLRLVAEGGAEGFGEASPWAVFTGTPEASYAALDRYLRPLVIGRRVGDRVAIMDEAARAVAHCTEAKAALDSALLDLAGRISNLPVWALLGGKCRDTIPLSCSIANPDFDADIALMERLRADGVGLIKLKTGFRDHAFDIMRLELIARDFPEFRVRVDYNQGLEIDEAVPRVLDVAQFQPDFIEQPVRAHHFELMARLRGLTDVPLLADESVYGPEDMVRAAHEGICDGVSIKIMKSGGLTRAQTVARIAAAHGLMAYGGDMFEAGLAHLAGTHMIAATPEITLGCEFYQASYFLNEDILETPFRVEAGQVIVPDGPGLGARADPEKLEHYAVRRSGEGHHHHHH",
    "readout.name": "soluble on expression in E. coli",
    "result": "soluble"
  },
  {
    "query.sequence": "EKDSQSPKIRQKYLRQYPELNSLIPAVVTEVREKEATAALQNGQIIIIPWEGMSWARPALKRGGWVGKSPTKAQQVVAAGDIIYVHPTEKSWQLAQIP",
    "readout.name": "soluble on expression in E. coli",
    "result": "not soluble"
  },
  {
    "query.sequence": "AIADNGDWGYMMTDPVTLNVGGHLYTTSLTTLTRYPDSMLGAMFGGDFPTARDPQGNYFIDRDGPLFRYVLNFLRTSELTLPLDFKEFDLLRKEADFYQIEPLIQCLNDPKPLYPMDTFEEVVELSSTRKLSKYSNPVAVIITQLTITTKVHSLLEGISNYFTKWNKHMMDTRDCQVSFTFGPCDYHQEVSLRVHLMEYITKQGFTIRNTRVHHMSERANENTVEHNWTFCRLARKTDD",
    "readout.name": "soluble on expression in E. coli",
    "result": "soluble"
  },
  {
    "query.sequence": "ADPALADVCRTKLPSQAQDTLALIAKNGPYPYNRDGVVFENRESRLPKKGNGYYHEFTVVTPGSNDRGTRRVVTGGYGEQYWSPDHYATFQEIDPRC",
    "readout.name": "soluble on expression in E. coli",
    "result": "soluble"
  }
]

Source listed as the DeepSol protein solubility set.
